- Test system: A549
- PROTOCOL NOTES: Inhibitory activity against A549 lung cancer cell line
- Assay type: functional, cell-based
- TEST CONTEXT: Homo sapiens
pIC50: −log10 of the molar value.
MEASURE NAME: pIC50

COMPOUND	QUANTITATIVE READOUT
CC(=O)O[C@@]12CO[C@@H]1C[C@H](O)[C@@]1(C)C(=O)[C@H](O)C3=C(C)[C@@H](OC(=O)[C@H](O)[C@@H](NC(=O)OC(C)(C)C)c4ccccc4)C[C@@](O)([C@@H](OC(=O)c4ccccc4)[C@H]21)C3(C)C [DOCETAXEL]	8.39
COc1cccc(C(=O)N[C@H]2C3[C@](C)(C(=O)[C@H](OC(C)=O)C4=C(C)[C@@H](OC(=O)[C@@H](O)[C@@H](NC(=O)OC(C)(C)C)c5ccccc5)C[C@]2(O)C4(C)C)[C@@H](O)C[C@H]2OC[C@@]32OC(C)=O)c1 (stereo partly specified)	7.08
CC(=O)O[C@H]1C(=O)[C@@]2(C)C([C@H](NC(=O)c3ccccc3)[C@]3(O)C[C@H](OC(=O)[C@@H](O)[C@@H](NC(=O)OC(C)(C)C)c4ccccc4)C(C)=C1C3(C)C)[C@]1(OC(C)=O)CO[C@@H]1C[C@@H]2O (stereo partly specified)	6.60
CC(=O)O[C@H]1C(=O)[C@@]2(C)[C@H]([C@H](OC(=O)c3ccccc3)[C@]3(O)C[C@H](OC(=O)[C@H](O)[C@@H](NC(=O)c4ccccc4)c4ccccc4)C(C)=C1C3(C)C)[C@]1(OC(C)=O)CO[C@@H]1C[C@@H]2O [PACLITAXEL]	7.92

---

- Test system: MCF7
- PROTOCOL NOTES: Inhibitory activity against Adriamycin-resistant MCF-7 breast cancer cell line
- Format: functional, cell-based
- TEST CONTEXT: Homo sapiens

COMPOUND	IC50
CC(=O)O[C@@]12CO[C@@H]1C[C@H](O)[C@@]1(C)C(=O)[C@H](O)C3=C(C)[C@@H](OC(=O)[C@H](O)[C@@H](NC(=O)OC(C)(C)C)c4ccccc4)C[C@@](O)([C@@H](OC(=O)c4ccccc4)[C@H]21)C3(C)C	4.2 µM
CC(=O)O[C@H]1C(=O)[C@@]2(C)C([C@H](NC(=O)c3cccc(Cl)c3)[C@]3(O)C[C@H](OC(=O)[C@@H](O)[C@@H](NC(=O)OC(C)(C)C)c4ccccc4)C(C)=C1C3(C)C)[C@]1(OC(C)=O)CO[C@@H]1C[C@@H]2O (some centres undefined)	> 4.5 µM
COc1cccc(C(=O)N[C@H]2C3[C@](C)(C(=O)[C@H](OC(C)=O)C4=C(C)[C@@H](OC(=O)[C@@H](O)[C@@H](NC(=O)OC(C)(C)C)c5ccccc5)C[C@]2(O)C4(C)C)[C@@H](O)C[C@H]2OC[C@@]32OC(C)=O)c1 (some centres undefined)	> 4.6 µM
CC(=O)O[C@H]1C(=O)[C@@]2(C)[C@H]([C@H](OC(=O)c3ccccc3)[C@]3(O)C[C@H](OC(=O)[C@H](O)[C@@H](NC(=O)c4ccccc4)c4ccccc4)C(C)=C1C3(C)C)[C@]1(OC(C)=O)CO[C@@H]1C[C@@H]2O	> 6 µM

---

- Test system: A549
- PROTOCOL NOTES: Inhibitory activity against A549 lung cancer cell line
- Format: functional, cell-based
- TEST CONTEXT: Homo sapiens
pIC50: −log10 of the molar value.

MOLECULE	pIC50
CC(=O)O[C@H]1C(=O)[C@@]2(C)C([C@H](NC(=O)OCc3ccccc3)[C@]3(O)C[C@H](OC(=O)[C@@H](O)[C@@H](NC(=O)OC(C)(C)C)c4ccccc4)C(C)=C1C3(C)C)[C@]1(OC(C)=O)CO[C@@H]1C[C@@H]2O (some centres not stated)	< 7.00
CC(=O)O[C@H]1C(=O)[C@@]2(C)C([C@H](NC(=O)c3ccc(Cl)cc3)[C@]3(O)C[C@H](OC(=O)[C@@H](O)[C@@H](NC(=O)OC(C)(C)C)c4ccccc4)C(C)=C1C3(C)C)[C@]1(OC(C)=O)CO[C@@H]1C[C@@H]2O (some centres not stated)	< 7.00

---

Listed here: items and their measured pIC50.
- System: A549
- PROTOCOL NOTES: Inhibitory activity against A549 lung cancer cell line
- Format: functional, cell-based
- TEST CONTEXT: Homo sapiens
pIC50: −log10 of the molar value.
MEASURE NAME: pIC50

COMPOUND	RESULT
CC(=O)O[C@H]1C(=O)[C@@]2(C)C([C@H](NC(=O)c3ccc([N+](=O)[O-])cc3)[C@]3(O)C[C@H](OC(=O)[C@@H](O)[C@@H](NC(=O)OC(C)(C)C)c4ccccc4)C(C)=C1C3(C)C)[C@]1(OC(C)=O)CO[C@@H]1C[C@@H]2O (some centres undefined)	< 7.00
CC(=O)O[C@H]1C(=O)[C@@]2(C)C([C@H](NC(=O)c3cccc(Cl)c3)[C@]3(O)C[C@H](OC(=O)[C@@H](O)[C@@H](NC(=O)OC(C)(C)C)c4ccccc4)C(C)=C1C3(C)C)[C@]1(OC(C)=O)CO[C@@H]1C[C@@H]2O (some centres undefined)	7.02
CC(=O)O[C@H]1C(=O)[C@@]2(C)C([C@H](NC(=O)c3ccccc3)[C@]3(O)C[C@H](OC(=O)[C@@H](O)[C@@H](NC(=O)OC(C)(C)C)c4ccccc4)C(C)=C1C3(C)C)[C@@](CO)(OC(C)=O)[C@@H](O)C[C@@H]2O (some centres undefined)	< 7.00
COc1ccc(C(=O)N[C@H]2C3[C@](C)(C(=O)[C@H](OC(C)=O)C4=C(C)[C@@H](OC(=O)[C@@H](O)[C@@H](NC(=O)OC(C)(C)C)c5ccccc5)C[C@]2(O)C4(C)C)[C@@H](O)C[C@H]2OC[C@@]32OC(C)=O)cc1 (some centres undefined)	< 7.00
